// data source = ChEMBL document CHEMBL4138150

zone of inhibition at 5000 µg/mL values by entry
- System: Aspergillus clavatus
- test.description: Antimicrobial activity against Aspergillus clavatus RCMB 02593 assessed as diameter of zone inhibition at 5 mg/ml after 72 hrs by agar well diffusion assay
- Type: functional
- details: RCMB 02593, 72 h, read-out: DIZ
experimental.readout: zone of inhibition at 5000 µg/mL (mm)

>  <compound>
Cc1ccc(-c2nn(-c3ccccc3)cc2/C=N/Nc2ccc3ccccc3n2)cc1

>  <study.target>
Aspergillus clavatus

>  <experimental.readout>
zone of inhibition at 5000 µg/mL

>  <measured.number>
18.3

$$$$
>  <compound>
COc1ccc(C2CC(c3ccc(Oc4ccc5ccccc5n4)cc3)=NN2c2ccccc2)cc1 (stereo unspecified)

>  <study.target>
Aspergillus clavatus

>  <experimental.readout>
zone of inhibition at 5000 µg/mL

>  <measured.number>
22.9

$$$$
>  <compound>
COc1ccc(C2=NNC(c3ccc(Oc4ccc5ccccc5n4)cc3)C2)cc1 (stereo unspecified)

>  <study.target>
Aspergillus clavatus

>  <experimental.readout>
zone of inhibition at 5000 µg/mL

>  <measured.number>
12.8

$$$$
>  <compound>
N#Cc1c(-c2cccc(Cl)c2)nn(-c2ccc3ccccc3n2)c1N

>  <study.target>
Aspergillus clavatus

>  <experimental.readout>
zone of inhibition at 5000 µg/mL

>  <measured.number>
13.2

$$$$
>  <compound>
N#Cc1c(-c2ccc(Cl)cc2Cl)nn(-c2ccc3ccccc3n2)c1N

>  <study.target>
Aspergillus clavatus

>  <experimental.readout>
zone of inhibition at 5000 µg/mL

>  <measured.number>
22.3

$$$$
>  <compound>
CCOC(=O)c1c(C)nn(-c2ccc3ccccc3n2)c1N

>  <study.target>
Aspergillus clavatus

>  <experimental.readout>
zone of inhibition at 5000 µg/mL

>  <measured.number>
18.6

$$$$
>  <compound>
COc1ccc(C2=NN(c3ccccc3)C(c3ccc(Oc4ccc5ccccc5n4)cc3)C2)cc1 (stereo unspecified)

>  <study.target>
Aspergillus clavatus

>  <experimental.readout>
zone of inhibition at 5000 µg/mL

>  <measured.number>
14.5

$$$$
>  <compound>
C(=N\Nc1ccc2ccccc2n1)/c1cn(-c2ccccc2)nc1-c1ccccc1

>  <study.target>
Aspergillus clavatus

>  <experimental.readout>
zone of inhibition at 5000 µg/mL

>  <measured.number>
18.4

$$$$
>  <compound>
COc1ccc(C2CC(c3ccc(Oc4ccc5ccccc5n4)cc3)=NN2)cc1 (stereo unspecified)

>  <study.target>
Aspergillus clavatus

>  <experimental.readout>
zone of inhibition at 5000 µg/mL

>  <measured.number>
14.2

$$$$
>  <compound>
Clc1ccccc1C1CC(c2ccc(Oc3ccc4ccccc4n3)cc2)=NN1c1ccccc1 (stereo unspecified)

>  <study.target>
Aspergillus clavatus

>  <experimental.readout>
zone of inhibition at 5000 µg/mL

>  <measured.number>
0

$$$$
>  <compound>
COc1ccc(C(=O)/C=C/c2ccc(Oc3ccc4ccccc4n3)cc2)cc1

>  <study.target>
Aspergillus clavatus

>  <experimental.readout>
zone of inhibition at 5000 µg/mL

>  <measured.number>
11.5

$$$$
>  <compound>
Clc1ccccc1C1CC(c2ccc(Oc3ccc4ccccc4n3)cc2)=NN1 (stereo unspecified)

>  <study.target>
Aspergillus clavatus

>  <experimental.readout>
zone of inhibition at 5000 µg/mL

>  <measured.number>
17.5

$$$$
>  <compound>
CCOC(=O)c1c(SC)nn(-c2ccc3ccccc3n2)c1N

>  <study.target>
Aspergillus clavatus

>  <experimental.readout>
zone of inhibition at 5000 µg/mL

>  <measured.number>
19.3

$$$$
>  <compound>
Cc1nn(-c2ccc3ccccc3n2)c(N)c1C#N

>  <study.target>
Aspergillus clavatus

>  <experimental.readout>
zone of inhibition at 5000 µg/mL

>  <measured.number>
18.3

$$$$
>  <compound>
CSc1nn(-c2ccc3ccccc3n2)c(N)c1C#N

>  <study.target>
Aspergillus clavatus

>  <experimental.readout>
zone of inhibition at 5000 µg/mL

>  <measured.number>
15.9

$$$$
>  <compound>
Clc1ccc(-c2nn(-c3ccccc3)cc2/C=N/Nc2ccc3ccccc3n2)cc1

>  <study.target>
Aspergillus clavatus

>  <experimental.readout>
zone of inhibition at 5000 µg/mL

>  <measured.number>
19.8

$$$$
